test system: T-47D; test: NCI 60 cell line screen (Breast Cancer); type: cell-based, human; settings: single dose 10 µM
Short version: Growth percentage at least 40% is TRUE, less is FALSE.

# check: Growth percentage of COc1ccc(C(c2cc(OC)c(OC)c(OC)c2)N2CCN(Cc3ccccc3)CC2)cc1 (centres unmarked) [27d] is greater than or equal to 40% TRUE

# check: Growth percentage of COc1ccc(C(c2cc(OC)c(OC)c(OC)c2)N2CCCCC2)cc1 (centres unmarked) [26b] is greater than or equal to 40% FALSE

# check: Growth percentage of COc1ccc(C(c2cc(OC)c(OC)c(OC)c2)N2CCCC2)cc1 (centres unmarked) [25g] is greater than or equal to 40% TRUE

# check: Growth percentage of COc1ccc(C(c2cc(OC)c(OC)c(OC)c2)n2ccnc2)cc1O (centres unmarked) [21l] is greater than or equal to 40% TRUE

# check: Growth percentage of COc1ccc(C(c2cc(OC)c(OC)c(OC)c2)n2cncn2)cc1O (centres unmarked) [19e] is greater than or equal to 40% FALSE

###

Biological target: CYP19 (aromatase) (Homo sapiens)
Sequence (P11511 1-503): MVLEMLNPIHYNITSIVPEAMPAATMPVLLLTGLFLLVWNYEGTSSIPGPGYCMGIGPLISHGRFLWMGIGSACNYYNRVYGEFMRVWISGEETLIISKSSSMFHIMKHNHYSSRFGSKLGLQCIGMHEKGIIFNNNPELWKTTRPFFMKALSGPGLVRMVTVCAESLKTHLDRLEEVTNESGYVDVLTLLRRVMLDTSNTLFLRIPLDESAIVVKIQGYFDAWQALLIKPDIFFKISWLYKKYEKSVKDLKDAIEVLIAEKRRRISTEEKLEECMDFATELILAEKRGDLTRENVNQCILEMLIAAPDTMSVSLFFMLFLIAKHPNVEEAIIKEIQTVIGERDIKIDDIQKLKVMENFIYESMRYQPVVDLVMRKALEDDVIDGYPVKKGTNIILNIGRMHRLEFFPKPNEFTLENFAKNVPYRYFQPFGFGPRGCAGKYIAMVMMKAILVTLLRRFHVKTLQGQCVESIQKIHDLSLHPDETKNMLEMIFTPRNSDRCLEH
experimentalReadout: IC50

COc1ccc(C(c2cc(OC)c(OC)c(OC)c2)n2nccn2)cc1O (stereo not shown) on CYP19 (aromatase) (Homo sapiens) gives IC50 = > 53.8 µM

###

system: PC-3; assay: NCI 60 cell line screen (Prostate cancer); format: cell-based, human; settings: PC-3, single dose 10 µM
experimentalReadout: Growth percentage

The compound listed as COc1ccc(C(c2cc(OC)c(OC)c(OC)c2)n2cncn2)cc1O (centres unmarked) [19e] has a reported Growth percentage of 21.20%

The compound listed as COc1ccc(C(c2cc(OC)c(OC)c(OC)c2)n2ccnc2)cc1O (centres unmarked) [21l] has a reported Growth percentage of 20.69%

The compound listed as COc1ccc(C(c2cc(OC)c(OC)c(OC)c2)N2CCCCC2)cc1 (centres unmarked) [26b] has a reported Growth percentage of 25.08%

The compound listed as COc1ccc(C(c2cc(OC)c(OC)c(OC)c2)N2CCN(Cc3ccccc3)CC2)cc1 (centres unmarked) [27d] has a reported Growth percentage of 59.28%

Please examine the following record next.
The compound listed as COc1ccc(C(c2cc(OC)c(OC)c(OC)c2)N2CCCC2)cc1 (centres unmarked) [25g] has a reported Growth percentage of 63.89%

Reference for the values: paper PMC7926793
